Entries and their protein stability index
B1: SLC35F2 (parent)
chain: SFMPLVIKVTSATSVNLGILTADL

Variants of: B1
testProtocol: protein stability index of a GFP-peptide fusion (GPS, HEK-293T) (PSI 1-6); higher = more stable;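 further: lentivirally expressed fusions sorted by FACS into six bins by GFP to DsRed ratio, PSI derived from sequencing read proportions per bin multiplied by bin number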
reportedConditions: c terminus: a fixed tail appended
// return a plain number; no unit text

Before answering, review these 10 worked examples.
[Q] // query protein stability index value for entry "S14C"
[A] 3.32

[Q] Also "A22E" ?
[A] 2.99

[Q] Also "T13Y" ?
[A] 3.88

[Q] Also "I19T" ?
[A] 2

[Q] Also "G18T" ?
[A] 3.29

[Q] Also "S1L" ?
[A] 3.05

[Q] Also "S1G" ?
[A] 2.77

[Q] Also "N16C" ?
[A] 3.4

[Q] Also "V15Y" ?
[A] 2.21

[Q] Also "V6L" ?
[A] 2.32

***
[Q] // query protein stability index value for entry "T13I"
[A] 3.67

[Q] Also "S11C" ?
[A] 2.19
